Let's look at some molecules and their measured GI50.
- Tested on: SN12C
- assay-remarks: NCI tumour cell line growth inhibition, 48 h
Activity calls are given as the source filed them. Cut-off read from the data, not from the text of the source: active = GI50 up to about 1.1 µM and inactive = higher.
readout-label: GI50

INSERT INTO results (line_notation, measured) VALUES
  ('CCOC(=O)c1sc2nc(-c3ccccc3)nn2c1CBr', '1.74 µM (inactive)'),
  ('CC1=CC=C2c3ccccc3C=CN2C(=O)C1', '63.5 µM (inactive)'),
  ('CCc1n[nH]c(=O)n1/N=C/c1c(O)ccc2ccccc12', '> 100 µM (inactive)'),
  ('CCO[C@@]1(COCc2ccccc2)OC(=O)C[C@@H]1N1C(=O)OC[C@@H]1c1ccccc1', '> 100 µM (inactive)'),
  ('O=c1[nH]c2[nH]c(-c3ccc(Br)cc3)cc2c2ccccc12', '41.4 µM (inactive)'),
  ('CN(C)Cc1cc(C(F)(F)F)ccc1C(O)(c1ccccc1)c1ccccc1', '15.4 µM (inactive)');

---

- System: PC-3
- assay-remarks: NCI tumour cell line growth inhibition, 48 h
Calls of active or inactive are those of the source. Cut-off read from the data, not from the text of the source: active = GI50 up to about 1.1 µM and inactive = higher.
readout-label: GI50

INSERT INTO measurements (molecule, readout_label, measured) VALUES
  ('O=C(CC1(O)C(=O)Nc2c(Cl)ccc(Cl)c21)c1ccco1 (configuration not stated)', 'GI50', '28.2 µM (inactive)'),
  ('CN(C)C(=S)SN(C)C(=O)Nc1ccccc1', 'GI50', '7.43 µM (inactive)'),
  ('CCN(CC)CC1CCCCN1CC(=O)N1c2ccccc2NC(=O)c2ccccc21 (configuration not stated)', 'GI50', '> 100 µM (inactive)'),
  ('O=C(c1ccco1)N1CCCN(C(=O)c2ccco2)C1=S', 'GI50', '24.4 µM (inactive)'),
  ('S=C1CCSc2c(ccc3ccccc23)N1', 'GI50', '41 µM (inactive)'),
  ('O=C(Nc1ccc(Cl)cc1)c1cc2c(cc1Cl)Sc1nccn1S2(=O)=O', 'GI50', '85.3 µM (inactive)'),
  ('CN(c1ccccc1Cl)S(=O)(=O)c1ccccc1', 'GI50', '44.3 µM (inactive)');

---

- System: Hs-578T
- assay-remarks: NCI tumour cell line growth inhibition, 48 h
Active and inactive are the calls of the source. No stated cut-off is given here; in the data, active = GI50 up to about 1.1 µM and inactive = higher.
Let's look at some compounds and their measured GI50.
readout-label: GI50

INSERT INTO measurements (compound, measured) VALUES
  ('CCc1n[nH]c(=O)n1N1C(=O)CCC1=O', '> 100 µM (inactive)'),
  ('CCCCCCCC(=O)NC(C)(C)C(=O)NCC(=O)NC(CC(C)C)C(=O)NC(C)(C)C(=O)NCC(=O)NCC(=O)NC(CC(C)C)C(=O)NC(C)(C)C(=O)NCC(=O)NC(C(=O)NC(CO)CC(C)C)C(C)CC (stereo unspecified)', '4.42 µM (inactive)'),
  ('CN(C)C(=S)SN(C)C(=O)Nc1ccccc1', '> 100 µM (inactive)'),
  ('CN1C(=O)C(C(=O)Nc2ccccn2)C2C[C@@]1(C)Oc1ccccc12 (stereo partly specified)', '> 100 µM (inactive)'),
  ('CN1CCC23c4c5ccc(Oc6nnnn6-c6ccccc6)c4OC2c2[nH]c4ccccc4c2CC3(O)C1C5 (stereo unspecified)', '9.25 µM (inactive)'),
  ('COc1ccccc1CNC1=Nc2ccncc2S(=O)(=O)N1c1ccccc1', '74.8 µM (inactive)'),
  ('Cn1c2ccccc2c2cc(N3CCCC3)c3c(c21)C(=O)N(c1ccccc1)C3=O', '72.9 µM (inactive)'),
  ('COP(=O)(OC)C(N)Cc1c[nH]c2ccccc12 (stereo unspecified)', '> 100 µM (inactive)'),
  ('C=CCN1C(=O)CNC1=S', '> 100 µM (inactive)'),
  ('CC1=CC=C2c3ccccc3C=CN2C(=O)C1', '35.6 µM (inactive)'),
  ('CC(=N\N=C\c1ccccn1)/C(C)=N/N=C/c1ccccn1', '> 100 µM (inactive)'),
  ('COc1ccc2c(c1)N=C1CSC(c3c(Cl)cccc3[N+](=O)[O-])N1C2 (stereo unspecified)', '45.4 µM (inactive)'),
  ('O=[N+]([O-])c1cc2oc(CSc3ccccc3)nc2cc1Cl', '51.6 µM (inactive)'),
  ('O=[As](O)(O)c1ccc(/N=N/c2ccc(O)cc2)cc1', '> 100 µM (inactive)'),
  ('Cc1cccc(/C=N/NC(=S)N2CCCCCC2)n1', '9.59 µM (inactive)'),
  ('CCOP(=O)(OCC)/C(=C/c1ccccc1)CC(C)=O', '> 100 µM (inactive)');

---

Let's look at some molecules and their measured GI50.
- System: A498
- assay-remarks: NCI tumour cell line growth inhibition, 48 h
The source made the active and inactive calls. Rule as the data show it: active = GI50 up to about 1.1 µM and inactive = higher.
readout-label: GI50

INSERT INTO measurements (molecule, measured) VALUES
  ('C=C1C(=O)OC2C1C(OC(=O)/C(=C/C)COC(C)=O)CC1(CO1)C1C(OC(=O)/C(=C/C)CO)C=C(C)C21 (stereo not drawn)', '3.03 µM (inactive)'),
  ('Nc1nc2c(c(=O)[nH]1)N=C(COP(=O)(O)OP(=O)(O)O)CN2', '> 100 µM (inactive)'),
  ('C(=C\c1c2oc(-c3ccccc3)cc(-c3ccccc3)c-2c2ccccc12)/C=C1\c2ccccc2-c2c(-c3ccccc3)cc(-c3ccccc3)[o+]c21.[O-][Cl+3]([O-])([O-])[O-]', '> 100 µM (inactive)'),
  ('C=C/C=C(\NC(=O)C(Cl)(Cl)Cl)[Si](C)(C)C', '> 100 µM (inactive)'),
  ('O=C1NC(O)CCN1C1OC(CO)C(O)C1O (stereo not drawn)', '> 211 µM (inactive)'),
  ('CNC(=O)C(C)NC(=O)C(Cc1ccccc1)NC(=O)c1ccccc1 (stereo not drawn)', '> 100 µM (inactive)'),
  ('COc1cc(Cl)c(CC(=O)c2c[nH]c3ccccc23)cc1OC', '12.1 µM (inactive)'),
  ('CC1N(O)C(c2ccccc2)C(c2ccccc2)=[N+]1[O-] (stereo not drawn)', '> 100 µM (inactive)'),
  ('Cc1c(C(=O)c2ccccc2)[n+]([O-])c2cc(Cl)c(Cl)cc2[n+]1[O-]', '19.6 µM (inactive)'),
  ('CN(C)Cc1cc(C(F)(F)F)ccc1C(O)(c1ccccc1)c1ccccc1', '11.7 µM (inactive)'),
  ('CN(C)C(=S)SN(C)C(=O)Nc1ccccc1', '3.9 µM (inactive)'),
  ('CC(=O)Oc1ccc(/C=C/C(=O)O[C@H]2CCCC[C@@H]2OC(=O)/C=C/c2ccc(OC(C)=O)c(OC(C)=O)c2)cc1OC(C)=O', '18.5 µM (inactive)'),
  ('Nc1ccccc1C(=O)N/N=C1\C(=O)Nc2ccccc21', '33.2 µM (inactive)'),
  ('O=C1[C@@H]2C(c3ccccc3Br)=NO[C@@H]2C(=O)N1c1ccc(Cc2ccc(N3C(=O)[C@H]4C(c5ccccc5Br)=NO[C@H]4C3=O)cc2)cc1', '> 100 µM (inactive)'),
  ('O=[N+]([O-])c1ccc(Cl)c(C2CC(c3cccc4ccccc34)=Nc3ccccc3S2)c1 (stereo not drawn)', '> 45.2 µM (inactive)'),
  ('Cc1ccc(S(=O)(=O)c2ccc(C)cc2[N+](=O)[O-])cc1', '19.4 µM (inactive)'),
  ('CCOC(=O)c1ccc(/N=C/c2ccc(N(CCC#N)S(=O)(=O)c3ccccc3)cc2C)cc1', '> 100 µM (inactive)'),
  ('CC(C)(C)OC(=O)NCCCC(=O)NC1(c2cc3ccccc3s2)CCCCC1', '17.6 µM (inactive)');

---

Let's look at some compounds and their measured GI50.
- Test system: SF-539
- assay-remarks: NCI tumour cell line growth inhibition, 48 h
Active and inactive are the calls of the source. Rule as the data show it: active = GI50 up to about 1.1 µM and inactive = higher.
readout-label: GI50

INSERT INTO measurements (compound, tested_system, measured) VALUES
  ('O=C1NC(O)CCN1C1OC(CO)C(O)C1O (stereo not drawn)', 'SF-539', '> 250 µM (inactive)'),
  ('CC(=N\c1ccncc1)/C(C)=N/c1ccncc1', 'SF-539', '18.7 µM (inactive)'),
  ('CCOc1ccc2c(C)cc(=O)oc2c1', 'SF-539', '> 100 µM (inactive)'),
  ('COc1ccc(SCc2cc(OC)c(OC)c(OC)c2)cc1OC', 'SF-539', '> 80.2 µM (inactive)'),
  ('COc1cc2cc(C(=O)N3CC(COS(C)(=O)=O)c4c3cc(N)c3ccccc43)[nH]c2c(OC)c1OC (stereo not drawn)', 'SF-539', '0.0177 µM (active)'),
  ('Cc1ccc(S(=O)(=O)N/N=C2\CCCCCCCCCCC2CN(C)C)cc1 (stereo not drawn)', 'SF-539', '17.1 µM (inactive)'),
  ('COc1ccc2nc(NC(=O)C(=O)CC(=O)c3ccc([N+](=O)[O-])cc3)sc2c1', 'SF-539', '> 100 µM (inactive)'),
  ('O=C1CCc2c(sc3ncnc(Nc4cccc(Br)c4)c23)C1', 'SF-539', '3.63 µM (inactive)'),
  ('O=C(NN1C(=O)CSC1c1cccc(F)c1)c1ccncc1 (stereo not drawn)', 'SF-539', '> 100 µM (inactive)'),
  ('c1ccc2c3c([nH]c2c1)C1C2CCCCN2C(c2ccncc2)N1CC3 (stereo not drawn)', 'SF-539', '58.3 µM (inactive)'),
  ('COC(=O)C1(C#N)C(C)(C)N=C(c2ccccc2)C12CCCCC2 (stereo not drawn)', 'SF-539', '> 100 µM (inactive)'),
  ('CN(C)Cc1cc(C(F)(F)F)ccc1C(O)(c1ccccc1)c1ccccc1', 'SF-539', '17 µM (inactive)'),
  ('COc1ccc2c(c1)N=C1CSC(c3c(Cl)cccc3[N+](=O)[O-])N1C2 (stereo not drawn)', 'SF-539', '37.2 µM (inactive)'),
  ('COc1ccc(C(=C(C#N)C#N)c2ccc(OC)cc2)cc1', 'SF-539', '> 100 µM (inactive)'),
  ('OC(C1CO1)C(O)C1CO1 (stereo not drawn)', 'SF-539', '23.9 µM (inactive)'),
  ('Cc1cc([N+](=O)[O-])c(C)c2c1[nH]c1ccc(O)cc12', 'SF-539', '> 100 µM (inactive)'),
  ('COc1ccc(-c2cc(=O)c3c(O)c(OC)c(O)cc3o2)cc1O', 'SF-539', '2.69 µM (inactive)'),
  ('COc1ccc(/C=C2\CSC/C(=C\c3ccc(OC)c(OC)c3OC)C2=O)c(OC)c1OC', 'SF-539', '26.4 µM (inactive)'),
  ('COc1ccc(C=C2C(=O)NC(=S)NC2=O)c2ccccc12', 'SF-539', '22 µM (inactive)'),
  ('COc1c(Cl)c(Cl)c(OC)c2c1C(=O)C=CC2=O', 'SF-539', '20 µM (inactive)'),
  ('O=C1/C(=C/c2cccc(F)c2)CCCc2ccccc21', 'SF-539', '17.4 µM (inactive)'),
  ('CC1=NN(c2ccccc2)C(=O)C1/N=N/c1ccc(Br)cc1C (stereo not drawn)', 'SF-539', '58.9 µM (inactive)'),
  ('O=C(c1ccc(Cl)cc1)N(C(=S)OCCOc1ccccc1)c1ccccc1', 'SF-539', '18.9 µM (inactive)'),
  ('CCOC(=O)C(=CNC(=S)Nc1c(CC)cccc1CC)C(=O)OCC', 'SF-539', '> 100 µM (inactive)'),
  ('CCn1c(C)nn2c(=O)c3ccccc3nc2c1=O', 'SF-539', '> 100 µM (inactive)'),
  ('COc1ccc(C(=O)NNC(=O)c2nsc3ccccc23)cc1', 'SF-539', '> 100 µM (inactive)'),
  ('COc1cc2c(cc1O)-c1c(OC)c(O)cc3c1C(C2)N(C)CC3 (stereo not drawn)', 'SF-539', '> 100 µM (inactive)'),
  ('Cc1c2cc[n+](C)cc2c(C)c2c1[nH]c1ccc(O)c(OCC(F)(F)F)c12', 'SF-539', '2.04 µM (inactive)');
